Biological target: HEK-Blue-hTLR8 cells (Homo sapiens, UniProt Q9NR97)
Sequence (Q9NR97 27-1041): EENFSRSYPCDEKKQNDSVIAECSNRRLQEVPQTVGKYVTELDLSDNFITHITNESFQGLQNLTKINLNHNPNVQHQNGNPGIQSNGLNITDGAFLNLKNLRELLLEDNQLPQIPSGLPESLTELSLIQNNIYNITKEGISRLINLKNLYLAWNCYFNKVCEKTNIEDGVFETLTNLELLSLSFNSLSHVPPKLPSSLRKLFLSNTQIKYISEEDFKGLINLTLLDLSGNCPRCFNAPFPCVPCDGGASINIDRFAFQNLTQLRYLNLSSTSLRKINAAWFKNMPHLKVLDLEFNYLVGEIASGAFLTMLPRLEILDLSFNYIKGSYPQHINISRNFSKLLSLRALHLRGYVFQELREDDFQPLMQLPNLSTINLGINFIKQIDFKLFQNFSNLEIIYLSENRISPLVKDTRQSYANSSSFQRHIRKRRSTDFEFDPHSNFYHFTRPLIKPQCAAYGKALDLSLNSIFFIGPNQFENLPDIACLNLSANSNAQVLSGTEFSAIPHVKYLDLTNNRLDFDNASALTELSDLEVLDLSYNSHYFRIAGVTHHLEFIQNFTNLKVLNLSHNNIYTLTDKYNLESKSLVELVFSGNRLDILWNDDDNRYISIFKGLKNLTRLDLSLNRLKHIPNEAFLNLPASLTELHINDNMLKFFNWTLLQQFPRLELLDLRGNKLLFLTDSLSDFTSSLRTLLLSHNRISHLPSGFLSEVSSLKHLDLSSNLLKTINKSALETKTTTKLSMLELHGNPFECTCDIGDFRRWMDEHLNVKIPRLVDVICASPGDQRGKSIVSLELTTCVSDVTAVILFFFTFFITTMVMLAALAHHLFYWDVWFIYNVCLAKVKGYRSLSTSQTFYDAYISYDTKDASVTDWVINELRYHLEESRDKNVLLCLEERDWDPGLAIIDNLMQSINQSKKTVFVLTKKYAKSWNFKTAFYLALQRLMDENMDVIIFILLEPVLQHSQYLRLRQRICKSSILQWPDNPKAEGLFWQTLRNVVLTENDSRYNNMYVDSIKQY
Experiment: HEK-Blue-hTLR8 cell inhibition assay
Settings: R848 3 µM, 16 h, OD 620 nm, read-out: TLR8 IC50
pIC50: −log10 of the molar value.
Outcome measure: pIC50

| Smiles | Outcome measure | Result |
| --- | --- | --- |
| CN1CCC(F)(c2nnc([C@]34CN(c5ccc(C#N)n6nccc56)C[C@@]3(C(F)(F)F)C4)o2)CC1 | pIC50 | > 7.00 |
| CN1CCN(c2nnc([C@]34CN(c5ccc(C#N)c6ncccc56)C[C@@]3(C(F)(F)F)C4)o2)CC1 | pIC50 | > 7.00 |
| CN1CCC(n2cnc([C@]34CN(c5ccc(C#N)c6ncccc56)C[C@@]3(C(F)(F)F)C4)n2)CC1 | pIC50 | > 7.00 |
| CN1CC(c2nnc([C@]34CN(c5ccc(C#N)c6ncccc56)C[C@@]3(C(F)(F)F)C4)o2)C1 | pIC50 | > 7.00 |
| CN1CCC(c2nnc([C@]34CN(c5ccc(C#N)c6ncccc56)C[C@@]3(C(F)(F)F)C4)[nH]2)CC1 | pIC50 | > 7.00 |
| COc1ccc2c(N3C[C@]4(c5nnc(C6CCN(C)CC6)o5)C[C@]4(C(F)(F)F)C3)ccc(C#N)c2n1 | pIC50 | > 6.00 |
| CN1CCC(c2nnc([C@]34CN(c5ccc(C#N)c6c5ccc(=O)n6C)C[C@@]3(C(F)(F)F)C4)o2)CC1 | pIC50 | > 6.00 |
